Values compiled from patent US20250313632A1.

Kd values by entry
- system: human B7-H3 (4Ig) protein (his tag) (human) (UniProt Q5ZPR3)
- assay.overview: SPR (Biacore T200), antibody captured on Protein A chip, B7-H3 injected, 1:1 model
property.label: Kd

{"binder": "81C8A1 (antibody, V domains shown) VH: QVTLKESGPGILQPSQTLSLTCSFSGFSLSTSGMGVSWIRQPPGKGLEWLAHIYWDDDRRYNPSLKSRLTISRDTSRNQVFLQITTVDTADTATYYCARSPYGSEAYWGQGTLVIVSA VL: QIVLSQSPTILSAFPGEKVTMTCRASSSVSFIQWYQQKSGSSPKPWIYSPSNLASGVPTRFSGSGSGTSYSLTIGRVEAEDAATYYCQQWSSYPWTFGGGTKVEIK", "reported.measurement": "0.196 nM"}
{"binder": "AHP06345 (antibody, V domains shown) VH: QVQLVQSGAEVKKPGESLRISCKGSGYSFTSYWISWVRQMPGKGLEWMGRIDPSDSYTNYSPSFQGHVTISADKSISTAYLQWSSLKASDTAMYYCARHTGYYGSGIGMDVWGQGTLVTVSS VL: HVILTQPPSVSAAPGQKVTISCSGSSSNIGNNYVSWYRQLPGTAPKLLIYDNNQRPSGIPDRFSGSKSGTSATLGITGLQTGDEADYYCATWDSSLGVVVFGGRTKLTVL", "reported.measurement": "1.47 nM"}
{"binder": "294A3C4 (antibody, V domains shown) VH: QVQLQQPGAELVKPGASVKLSCKASGYTFTSYWMHWVKQRPGQGLEWIGMFHPNSGTTNYNEKFKSKATLTVDKSSSTAYMQLSSLTSEDSAVYYCARRLGIFFDYWGQGTTLTVSS VL: DIVMTQSPSSLTVTAGEKVTMSCRSSQSLLNSGNQKNYLTWYQQKPGQPPKLLIYWASTRDSGVPDRFTGSGSGTDFTLTISSVQTEDLAVYYCQTDYSYPFTFGSGTKLEIK", "reported.measurement": "2.92 nM"}
